- SYSTEM_TESTED: p38MAPKγ (MAPK12) (Homo sapiens, UniProt P53778)
- Construct: purchased Life Technologies
- Sequence (P53778 whole entry): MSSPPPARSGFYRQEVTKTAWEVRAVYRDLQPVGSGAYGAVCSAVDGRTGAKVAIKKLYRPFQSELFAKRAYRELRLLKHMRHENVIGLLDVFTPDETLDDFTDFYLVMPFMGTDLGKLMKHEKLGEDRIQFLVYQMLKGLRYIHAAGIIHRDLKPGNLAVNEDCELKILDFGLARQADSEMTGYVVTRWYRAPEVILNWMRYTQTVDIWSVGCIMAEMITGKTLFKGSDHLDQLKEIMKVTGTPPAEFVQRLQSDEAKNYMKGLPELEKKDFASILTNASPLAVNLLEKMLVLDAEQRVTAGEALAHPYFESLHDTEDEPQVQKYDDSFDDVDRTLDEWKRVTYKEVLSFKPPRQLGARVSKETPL
- ASSAY_OVERVIEW: p38 MAPKγ enzyme inhibition (Z-LYTE FRET)
- Format: biochemical
- RUN_CONDITIONS: Table 2B, unit inferred; read-out: p38 MAPKγ (Enzyme Profile)
pIC50: −log10 of the molar value.
Listed next: entries and their corresponding pIC50.

>  <MOL>
Cc1ccc(-n2nc(C(C)(C)C)cc2NC(=O)Nc2ccc(OCc3ccnc(Nc4cnc(C(=O)NCCN(C)C)cn4)c3)c3ccccc23)cc1

>  <SYSTEM_TESTED>
p38MAPKγ (MAPK12) (Homo sapiens, UniProt P53778)

>  <VALUE_COMPARATOR>
=

>  <pIC50>
7.13

$$$$
>  <MOL>
Cc1ccc(-n2nc(C(C)(C)C)cc2NC(=O)Nc2ccc(OCc3ccnc(Nc4cnc(C(=O)NCCN5CCC[C@H](F)C5)cn4)c3)c3ccccc23)cc1

>  <SYSTEM_TESTED>
p38MAPKγ (MAPK12) (Homo sapiens, UniProt P53778)

>  <VALUE_COMPARATOR>
=

>  <pIC50>
6.43

$$$$
>  <MOL>
COCCN1CCC(NC(=O)c2cnc(Nc3cc(COc4ccc(NC(=O)Nc5cc(C(C)(C)C)nn5-c5ccc(C)cc5)c5ccccc45)ccn3)cn2)CC1

>  <SYSTEM_TESTED>
p38MAPKγ (MAPK12) (Homo sapiens, UniProt P53778)

>  <VALUE_COMPARATOR>
=

>  <pIC50>
7.21

$$$$
>  <MOL>
CCCNC(=O)c1cnc(Nc2cc(COc3ccc(NC(=O)Nc4cc(C(C)(C)C)nn4-c4ccc(C)cc4)c4ccccc34)ccn2)cn1

>  <SYSTEM_TESTED>
p38MAPKγ (MAPK12) (Homo sapiens, UniProt P53778)

>  <VALUE_COMPARATOR>
<

>  <pIC50>
4.84

$$$$
>  <MOL>
CCCc1cncc(Nc2cc(COc3ccc(NC(=O)Nc4cc(C(C)(C)C)nn4-c4ccc(C)cc4)c4ccccc34)ccn2)n1

>  <SYSTEM_TESTED>
p38MAPKγ (MAPK12) (Homo sapiens, UniProt P53778)

>  <VALUE_COMPARATOR>
=

>  <pIC50>
6.77

$$$$
>  <MOL>
Cc1ccc(-n2nc(C(C)(C)C)cc2NC(=O)Nc2ccc(OCc3ccnc(Nc4cnc(C(=O)NCCN5CC[C@@H](O)C5)cn4)c3)c3ccccc23)cc1

>  <SYSTEM_TESTED>
p38MAPKγ (MAPK12) (Homo sapiens, UniProt P53778)

>  <VALUE_COMPARATOR>
=

>  <pIC50>
7.47

$$$$

* * *

- SYSTEM_TESTED: p38MAPKγ (MAPK12) (Homo sapiens, UniProt P53778)
- Construct: purchased Life Technologies
- ASSAY_OVERVIEW: p38 MAPKγ enzyme inhibition (Z-LYTE FRET)
- Format: biochemical
- RUN_CONDITIONS: Table 2A; read-out: IC50 Values for Enzyme Inhibition p38 MAPKγ
- Description: The enzyme inhibitory activities of compounds disclosed herein were determined by FRET using synthetic peptides labelled with both donor and acceptor fluorophores (Z-LYTE, Life Technologies, Paisley, UK). The inhibitory activities of compounds of the invention against p38MAPKγ (MAPK12: Life Technologies), were evaluated by determining the level of activation/phosphorylation of the target peptide. […]
ENDPOINT_NAME: IC50 (nM)

>  <MOL>
Cc1ccc(-n2nc(C(C)(C)C)cc2NC(=O)Nc2ccc(OCc3ccnc(Nc4cnc(CC(N)=O)cn4)c3)c3ccccc23)cc1

>  <SYSTEM_TESTED>
p38MAPKγ (MAPK12) (Homo sapiens, UniProt P53778)

>  <ENDPOINT_NAME>
IC50

>  <VALUE_OBSERVED>
29

$$$$
>  <MOL>
Cc1ccc(-n2nc(C(C)(C)C)cc2NC(=O)Nc2ccc(OCc3ccnc(Nc4cnc(CN)cn4)c3)c3ccccc23)cc1

>  <SYSTEM_TESTED>
p38MAPKγ (MAPK12) (Homo sapiens, UniProt P53778)

>  <ENDPOINT_NAME>
IC50

>  <VALUE_OBSERVED>
16

$$$$
>  <MOL>
Cc1ccc(-n2nc(C(C)(C)C)cc2NC(=O)Nc2ccc(OCc3ccnc(Nc4cnc(C)c(C)n4)c3)c3ccccc23)cc1

>  <SYSTEM_TESTED>
p38MAPKγ (MAPK12) (Homo sapiens, UniProt P53778)

>  <ENDPOINT_NAME>
IC50

>  <VALUE_OBSERVED>
441

$$$$
>  <MOL>
Cc1ccc(-n2nc(C(C)(C)C)cc2NC(=O)Nc2ccc(OCc3ccnc(Nc4cnc(C)cn4)c3)c3ccccc23)cc1

>  <SYSTEM_TESTED>
p38MAPKγ (MAPK12) (Homo sapiens, UniProt P53778)

>  <ENDPOINT_NAME>
IC50

>  <VALUE_OBSERVED>
229

$$$$
>  <MOL>
CNC(=O)Cc1cncc(Nc2cc(COc3ccc(NC(=O)Nc4cc(C(C)(C)C)nn4-c4ccc(C)cc4)c4ccccc34)ccn2)n1

>  <SYSTEM_TESTED>
p38MAPKγ (MAPK12) (Homo sapiens, UniProt P53778)

>  <ENDPOINT_NAME>
IC50

>  <VALUE_OBSERVED>
106

$$$$
>  <MOL>
COc1ccc(-n2nc(C(C)(C)C)cc2NC(=O)Nc2ccc(OCc3ccnc(Nc4cncc(C5CC5)n4)c3)c3ccccc23)cc1

>  <SYSTEM_TESTED>
p38MAPKγ (MAPK12) (Homo sapiens, UniProt P53778)

>  <ENDPOINT_NAME>
IC50

>  <VALUE_OBSERVED>
377

$$$$
>  <MOL>
CC(=O)NCc1cnc(Nc2cc(COc3ccc(NC(=O)Nc4cc(C(C)(C)C)nn4-c4ccc(C)cc4)c4ccccc34)ccn2)cn1

>  <SYSTEM_TESTED>
p38MAPKγ (MAPK12) (Homo sapiens, UniProt P53778)

>  <ENDPOINT_NAME>
IC50

>  <VALUE_OBSERVED>
37

$$$$
>  <MOL>
Cc1cc(-n2nc(C(C)(C)C)cc2NC(=O)Nc2ccc(OCc3ccnc(Nc4cncc(C5CC5)n4)c3)c3ccccc23)cs1

>  <SYSTEM_TESTED>
p38MAPKγ (MAPK12) (Homo sapiens, UniProt P53778)

>  <ENDPOINT_NAME>
IC50

>  <VALUE_OBSERVED>
376

$$$$
>  <MOL>
CC(C)(C)c1cc(NC(=O)Nc2ccc(OCc3ccnc(Nc4cnccn4)c3)c3ccccc23)n(-c2cccc(Cl)c2)n1

>  <SYSTEM_TESTED>
p38MAPKγ (MAPK12) (Homo sapiens, UniProt P53778)

>  <ENDPOINT_NAME>
IC50

>  <VALUE_OBSERVED>
356

$$$$
>  <MOL>
Cc1ccc(-n2nc(C(C)(C)C)cc2NC(=O)Nc2ccc(OCc3ccnc(Nc4cncc(C5CC5)n4)c3)c3ccccc23)cc1

>  <SYSTEM_TESTED>
p38MAPKγ (MAPK12) (Homo sapiens, UniProt P53778)

>  <ENDPOINT_NAME>
IC50

>  <VALUE_OBSERVED>
160

$$$$
>  <MOL>
Cc1ccc(-n2nc(C(C)(C)C)cc2NC(=O)Nc2ccc(OCc3ccnc(Nc4cnc(CO)cn4)c3)c3ccccc23)s1

>  <SYSTEM_TESTED>
p38MAPKγ (MAPK12) (Homo sapiens, UniProt P53778)

>  <ENDPOINT_NAME>
IC50

>  <VALUE_OBSERVED>
74

$$$$
>  <MOL>
Cc1ccc(-n2nc(C(C)(C)C)cc2NC(=O)Nc2ccc(OCc3ccnc(Nc4cnc(CO)cn4)c3)c3ccccc23)cc1

>  <SYSTEM_TESTED>
p38MAPKγ (MAPK12) (Homo sapiens, UniProt P53778)

>  <ENDPOINT_NAME>
IC50

>  <VALUE_OBSERVED>
31

$$$$
>  <MOL>
CCc1ccc(-n2nc(C(C)(C)C)cc2NC(=O)Nc2ccc(OCc3ccnc(Nc4cnccn4)c3)c3ccccc23)cc1

>  <SYSTEM_TESTED>
p38MAPKγ (MAPK12) (Homo sapiens, UniProt P53778)

>  <ENDPOINT_NAME>
IC50

>  <VALUE_OBSERVED>
521

$$$$
>  <MOL>
Cc1ccc(-n2nc(C(C)(C)C)cc2NC(=O)Nc2ccc(OCc3ccnc(Nc4cncc(C5CCCC5)n4)c3)c3ccccc23)cc1

>  <SYSTEM_TESTED>
p38MAPKγ (MAPK12) (Homo sapiens, UniProt P53778)

>  <ENDPOINT_NAME>
IC50

>  <VALUE_OBSERVED>
1230

$$$$

Ref: patent US11142515B2
